Entry source: PubChem BioAssay (Tox21)

Test: qHTS assay to identify small molecule antagonists of the thyroid receptor (TR) signaling pathway - cell viability counter screen (AID 743064); note: nearly all actives have a fitted effect of over 50% in size
Settings: GH3.TRE-Luc viability, CellTiter-Fluor, 24 h; series mostly up to 70.3 µM
Records with an inconclusive call do not appear. Activity calls are given as the source filed them. Calls come from the whole dose curve; as a rule, active = well fitted cell-killing curve with a large enough effect in the repeat runs; inconclusive = weak or mixed curves, or effect the other way; inactive = no such curve, though single readings can be large or run the other way.
Classes used: active, inactive

>  <mol>
O=C(O)/C=C/C(=O)Nc1ccc(S(=O)(=O)Nc2nccs2)cc1

>  <label value>
inactive

$$$$
>  <mol>
CC(=O)N[C@@H](C=O)[C@H](O)[C@H](O)[C@@H](O)CO

>  <label value>
inactive

$$$$
>  <mol>
Cc1cc(C(=O)NCCc2ccc(S(=O)(=O)NC(=O)NN3CCCCCC3)cc2)no1

>  <label value>
inactive

$$$$
>  <mol>
C=CCc1cc(S(=O)(=O)c2ccc(O)c(CC=C)c2)ccc1O

>  <label value>
active

$$$$
>  <mol>
COc1ccc(/C=C/C(=O)O)cc1

>  <label value>
inactive

$$$$
>  <mol>
C=N[C@@H](C(=O)N[C@@H]1C(=O)N2[C@@H]1SC(C)(C)[C@@H]2C(=O)O)c1ccccc1

>  <label value>
inactive

$$$$
>  <mol>
O=P(O)(O)CP(=O)(O)O

>  <label value>
inactive

$$$$
>  <mol>
NC[C@H]1O[C@H](O[C@H]2[C@H](O)[C@@H](O[C@H]3O[C@H](CO)[C@@H](O)[C@H](N)[C@H]3O)[C@H](N)C[C@@H]2N)[C@H](N)C[C@@H]1O

>  <label value>
inactive

$$$$
>  <mol>
CC(C)=CCC/C(C)=C/CC/C(C)=C/CC/C(C)=C/CC1=C(C)C(=O)c2ccccc2C1=O

>  <label value>
inactive

$$$$
>  <mol>
O=[N+]([O-])c1ccc(O)c2ncccc12

>  <label value>
active

$$$$

---

Test: qHTS assay to identify small molecule antagonists of the progesterone receptor (PR) signaling pathway - cell viability counter screen (AID 1346798); note: nearly all actives have a fitted effect of over 50% in size
Conditions: PR-UAS-bla HEK293T viability, CellTiter-Glo luminescence, 16 h; series mostly up to 92.4 µM
Inconclusive results are not listed. Activity calls are given as the source filed them. The call rests on the fitted dose curve; in most records, active means well fitted cell-killing curve with a large enough effect in the repeat runs; inconclusive means weak or mixed curves, or effect the other way; inactive means no such curve, though single readings can be large or run the other way.
Labels: class 1 (active), class 0 (inactive)

>  <compound>
CCc1cccc(CC)c1

>  <label value>
class 0

$$$$
>  <compound>
CC(c1cc(C(C)(C)C)cc(C(C)(C)C)c1O)c1cc(C(C)(C)C)cc(C(C)(C)C)c1O

>  <label value>
class 0

$$$$
>  <compound>
Cc1c(Cl)c(=O)oc2cc(O)ccc12

>  <label value>
class 0

$$$$
>  <compound>
O=c1cc[nH]cc1

>  <label value>
class 0

$$$$
>  <compound>
C=Cc1ccncc1

>  <label value>
class 0

$$$$
>  <compound>
O=C1OC(=O)c2cc(-c3ccc4c(c3)C(=O)OC4=O)ccc21

>  <label value>
class 0

$$$$
>  <compound>
CCCCCCCCCCCC(=O)Cl

>  <label value>
class 0

$$$$
>  <compound>
CC1=CC[C@@H](C(C)(C)O)CC1

>  <label value>
class 0

$$$$
>  <compound>
O=C1OC2(c3ccccc31)c1ccc(O)c(Br)c1Oc1c2ccc(O)c1Br

>  <label value>
class 0

$$$$
>  <compound>
Cc1cc(C)c(O)c(C(C)(C)C)c1

>  <label value>
class 0

$$$$
>  <compound>
Nc1ccc2c(S(=O)(=O)O)cccc2c1S(=O)(=O)O

>  <label value>
class 0

$$$$
>  <compound>
Cc1ccc(C=O)cc1

>  <label value>
class 0

$$$$
>  <compound>
CC1(C)[C@H](C(=O)OCc2cccc(Oc3ccccc3)c2)[C@@H]1C=C(Cl)Cl

>  <label value>
class 0

$$$$
>  <compound>
[Cl][Sc]([Cl])[Cl]

>  <label value>
class 0

$$$$
>  <compound>
C/C=C/C(=O)OCC(C)C

>  <label value>
class 0

$$$$
>  <compound>
CCCCCN=C(N)N/N=C/c1c[nH]c2ccc(OC)cc12

>  <label value>
class 1

$$$$
>  <compound>
CC(C)C(=O)C(C)C

>  <label value>
class 0

$$$$
>  <compound>
NC(=O)C1CO1 (centres undefined)

>  <label value>
class 0

$$$$
>  <compound>
CCn1c2ccccc2c2ccccc21

>  <label value>
class 0

$$$$
>  <compound>
CC(=O)Nc1ccc(N=Nc2cc(C)ccc2O)cc1

>  <label value>
class 0

$$$$
>  <compound>
Cc1c[nH]c(=O)[nH]c1=O

>  <label value>
class 0

$$$$
>  <compound>
Cn1ccnc1

>  <label value>
class 0

$$$$
>  <compound>
CCN(CC)c1ccc2c(c1)Oc1cc(N(CC)CC)ccc1C21OC(=O)c2ccccc21

>  <label value>
class 0

$$$$
>  <compound>
CC(C=O)c1ccccc1 (centres undefined)

>  <label value>
class 0

$$$$
>  <compound>
Clc1ccc2c(Cl)ccnc2c1

>  <label value>
class 0

$$$$
>  <compound>
CN[C@H]1CC[C@@H](c2ccc(Cl)c(Cl)c2)c2ccc(S(N)(=O)=O)cc21

>  <label value>
class 1

$$$$
>  <compound>
CCN(CCC#N)c1ccc(N=Nc2ccc([N+](=O)[O-])cc2)cc1

>  <label value>
class 0

$$$$
>  <compound>
C=C(C)CCO

>  <label value>
class 0

$$$$
>  <compound>
c1ccc2cc3c4ccccc4c4ccccc4c3cc2c1

>  <label value>
class 0

$$$$
